- assayMethodText: HCV replicon assay, genotype 2b (stable)
- Type: cell-based
- measurementConditions: Hepatitis C virus, genotype 2a / genotype 2b, 2BS, read-out: 2b (s)
pEC50: −log10 of the molar value.
valueType: pEC50

Study these solved cases before continuing.
- molecule: "COC[C@H]1C[C@@H](c2ncc(-c3ccc(-c4ccc(-c5cnc([C@@H]6CC[C@H](C)N6C(=O)[C@@H](NC(=O)OC)C6CCOCC6)[nH]5)cc4)cc3)[nH]2)N(C(=O)[C@@H](NC(=O)OC)C2CCOCC2)C1 [Example AJ]"
  valueReported: "9.00 to 10.00"
- molecule: "COC[C@H]1C[C@@H](c2nc(Cl)c(-c3ccc(-c4ccc(-c5cnc([C@@H]6CC[C@H](C)N6C(=O)[C@@H](NC(=O)OC)C(C)C)[nH]5)cc4)cc3)[nH]2)N(C(=O)[C@@H](NC(=O)OC)C(C)C)C1 [AI]"
  valueReported: "7.36 to 9.00"
- molecule: "COC[C@H]1C[C@@H](c2nc(Cl)c(-c3ccc(-c4ccc(-c5[nH]c([C@@H]6CC[C@H](C)N6C(=O)[C@@H](NC(=O)OC)C(C)C)nc5Cl)cc4)cc3)[nH]2)N(C(=O)[C@@H](NC(=O)OC)C(C)C)C1 [Example AG]"
  valueReported: "7.36 to 9.00"
- molecule: "COC[C@H]1C[C@@H](c2ncc(-c3ccc(-c4ccc(-c5cnc([C@@H]6CC[C@H](C)N6C(=O)[C@@H](NC(=O)OC)C(C)C)[nH]5)cc4)cc3)[nH]2)N(C(=O)[C@@H](NC(=O)OC)C2CCOCC2)C1 [Example AN]"
  valueReported: "7.36 to 9.00"
- molecule: "COC[C@H]1C[C@@H](c2ncc(-c3ccc(-c4ccc(-c5[nH]c([C@@H]6CC[C@H](C)N6C(=O)[C@@H](NC(=O)OC)C(C)C)nc5Cl)cc4)cc3)[nH]2)N(C(=O)[C@@H](NC(=O)OC)C(C)C)C1 [AH]"
  valueReported: "7.36 to 9.00"

Q: Read off the recorded pEC50 for COC[C@H]1C[C@@H](c2ncc(-c3ccc(-c4ccc(-c5cnc([C@@H]6CC[C@H](C)N6C(=O)[C@@H](NC(=O)OC)C6CCOCC6)[nH]5)cc4)cc3)[nH]2)N(C(=O)[C@@H](NC(=O)OC)C(C)C)C1 [Example AL]
A: 7.36 to 9.00

Hello, the source for this data is patent US9079887B2, in case you need it.
